assay: Stability constants of Ba^2+ complexes by pH-potentiometry; type: binding; details: pH 7.4, 25 °C, I = 0.1 M KCl
Quick rule for you: log KʹBa (conditional stability constant) under 10 gets t, anything else gets f.

{"columns": ["compound", "qualitative_label"],
 "data": [
  ["O=C(O)c1cccc(CN2CCOCCOCCN(Cc3cccc(C(=O)O)n3)CCOCCOCC2)n1 [macropa]", "f"],
  ["O=S(=O)(O)c1ccc(O)c2nc(CN3CCOCCOCCN(Cc4ccc5c(S(=O)(=O)O)ccc(O)c5n4)CCOCCOCC3)ccc12 [macroquin–SO3]", "t"],
  ["O=C(O)CN(CCN(CC(=O)O)CC(=O)O)CCN(CC(=O)O)CC(=O)O [DTPA, reference compound]", "t"]
]}

Lab log: compare recorded log KʹBa (conditional stability constant) with 10; is it strictly lower for O=C(O)CN1CCN(CC(=O)O)CCN(CC(=O)O)CCN(CC(=O)O)CC1 [DOTA, reference compound] ?
t

----------
assay: Stability constants of Sr^2+ complexes by pH-potentiometry; format: binding; conditions: pH 7.4, 25 °C, I = 0.1 M KCl
recorded_endpoint: log KʹSr (conditional stability constant)
Answers are plain numbers.

# example entries with known answers
{"columns": ["compound", "experimental_result"],
 "data": [
  ["O=C(O)CN1CCN(CC(=O)O)CCN(CC(=O)O)CCN(CC(=O)O)CC1 [DOTA, reference compound]", 8.35],
  ["O=C(O)CN(CCN(CC(=O)O)CC(=O)O)CCN(CC(=O)O)CC(=O)O [DTPA, reference compound]", 5.53],
  ["O=C(O)c1cccc(CN2CCOCCOCCN(Cc3ccc4cccc(O)c4n3)CCOCCOCC2)n1", 7.54],
  ["O=C(O)c1cccc(CN2CCOCCOCCN(Cc3cccc(C(=O)O)n3)CCOCCOCC2)n1", 9.07]
]}

Can you share its log KʹSr (conditional stability constant)? I mean this compound: O=S(=O)(O)c1ccc(O)c2nc(CN3CCOCCOCCN(Cc4ccc5c(S(=O)(=O)O)ccc(O)c5n4)CCOCCOCC3)ccc12
5.64

----------
For each record, write down the corresponding log KʹCa (conditional stability constant).
assay: Stability constants of Ca^2+ complexes by pH-potentiometry; type: binding; settings: pH 7.4, 25 °C, I = 0.1 M KCl
Answers are plain numbers.

# example entries with known answers
{"columns": ["compound", "experimental_result"],
 "data": [
  ["O=S(=O)(O)c1ccc(O)c2nc(CN3CCOCCOCCN(Cc4ccc5c(S(=O)(=O)O)ccc(O)c5n4)CCOCCOCC3)ccc12", 3.19],
  ["O=C(O)CN1CCN(CC(=O)O)CCN(CC(=O)O)CCN(CC(=O)O)CC1 [DOTA, reference compound]", 10.34],
  ["O=C(O)c1cccc(CN2CCOCCOCCN(Cc3ccc4cccc(O)c4n3)CCOCCOCC2)n1", 3.94],
  ["O=C(O)c1cccc(CN2CCOCCOCCN(Cc3cccc(C(=O)O)n3)CCOCCOCC2)n1", 5.42]
]}

Can you share its log KʹCa (conditional stability constant)? I mean this compound: O=C(O)CN(CCN(CC(=O)O)CC(=O)O)CCN(CC(=O)O)CC(=O)O [DTPA, reference compound]
7.63
